- PROTOCOL CONDITIONS: pH 9.6, Solubility, Basic conditions (pH 9.6-13)
READOUT KIND: solubility

Find the measured solubility of CC(C)C[C@H](NC(=O)[C@@H](N)CC(C)C)C(=O)N[C@H](C(=O)N[C@@H](Cc1ccccc1)C(=O)N[C@@H](Cc1c[nH]c2ccccc12)C(=O)N[C@@H](CC(N)=O)C(=O)N1CCC[C@H]1C(=O)N1CCC[C@H]1C(=O)N[C@H](C(=O)O)C(C)C)[C@@H](C)O [Peptide 1243.08] and report it.
> 2000 µg/mL

# return recorded solubility for entry CC(C)C[C@H](NC(=O)[C@H](CC(C)C)NC(=O)[C@@H](N)CCCNC(=N)N)C(=O)N[C@@H](CCC(N)=O)C(=O)N[C@@H](CCC(=O)O)C(=O)N[C@H](C(=O)N[C@@H](CCC(=O)O)C(=O)N[C@@H](CC(C)C)C(=O)N[C@H](C(=O)O)C(C)C)[C@@H](C)O [Peptide 1013.08]
> 2000 µg/mL

Consider the compound CC[C@H](C)[C@H](NC(=O)CNC(=O)[C@H](Cc1ccccc1)NC(=O)[C@@H](NC(=O)[C@H](CC(C)C)NC(=O)[C@H](CCC(N)=O)NC(=O)[C@H](CC(C)C)NC(=O)[C@@H](N)Cc1ccc(O)cc1)C(C)C)C(=O)N[C@@H](CCC(=O)O)C(=O)N[C@H](C(=O)O)C(C)C [Peptide 1090.01] . State its measured solubility.
> 2000 µg/mL

For the compound CC(C)C[C@H](NC(=O)[C@H](CO)NC(=O)CNC(=O)[C@H](Cc1ccccc1)NC(=O)[C@@H](NC(=O)[C@@H](N)CCCCN)C(C)C)C(=O)N[C@@H](C)C(=O)N[C@@H](Cc1ccccc1)C(=O)N[C@H](C(=O)O)C(C)C [Peptide 1334.10] , give its measured solubility value.
< 5000 µg/mL

====

- PROTOCOL DESCRIPTION: Solubility of individual peptides
- PROTOCOL CONDITIONS: pH 9.6, Solubility, Basic conditions (pH 9.6-13), 25 mM pH 9.6 arginine, 25 mM pH 9.6 sodium bicarbonate, 0.1M NaOH; 2-5 mg/ml
READOUT KIND: solubility

Respond only with solubility recorded for CC(C)C[C@H](NC(=O)[C@H](CCC(N)=O)NC(=O)[C@@H](NC(=O)[C@@H]1CCCN1C(=O)C(C)(C)NC(=O)[C@H](CC(C)C)NC(=O)[C@@H](N)CCCCN)C(C)C)C(=O)N[C@@H](Cc1c[nH]c2ccccc12)C(=O)N[C@H](C(=O)O)C(C)C [Peptide 1323.06, KLBPVQLWV]
> 2000 µg/mL

Report measured solubility; entry is CC[C@H](C)[C@H](NC(=O)[C@H](CCC(=O)O)NC(=O)[C@H](C)NC(=O)[C@@H](NC(=O)[C@@H](N)CCCCN)C(C)C)C(=O)N[C@H](C(=O)N[C@@H](Cc1c[nH]cn1)C(=O)N[C@@H](Cc1ccccc1)C(=O)N[C@@H](CC(C)C)C(=O)O)C(C)C [Peptide 1352.03]
> 2000 µg/mL

Identify the reported solubility for the following entry. CSCC[C@H](NC(=O)[C@@H](N)CO)C(=O)N1CCC[C@H]1C(=O)N1CCC[C@H]1C(=O)N1CCC[C@H]1C(=O)NCC(=O)N[C@H](C(=O)N[C@@H](CCCNC(=N)N)C(=O)N[C@H](C(=O)O)C(C)C)[C@@H](C)O [Peptide 1295.03]
> 2000 µg/mL

====

Kindly supply the reported solubility values for the records listed here.
- PROTOCOL DESCRIPTION: Solubility of individual peptides
- PROTOCOL CONDITIONS: pH 9.6, Solubility, Basic conditions (pH 9.6-13), 25 mM pH 9.6 arginine, 25 mM pH 9.6 sodium bicarbonate, 0.1M NaOH; 2-5 mg/ml

Name the recorded solubility of the compound listed here: CC[C@H](C)[C@H](N)C(=O)N[C@@H](CCSC)C(=O)N[C@H](C(=O)NCC(=O)N[C@@H](Cc1c[nH]cn1)C(=O)N[C@@H](CC(C)C)C(=O)N[C@H](C(=O)NCC(=O)N[C@H](C(=O)O)C(C)C)C(C)C)[C@@H](C)CC [Peptide 1352.02]
< 5000 µg/mL

Query solubility for CC(C)C[C@H](NC(=O)[C@H](CC(N)=O)NC(=O)[C@H](CC(C)C)NC(=O)[C@H](CC(=O)O)NC(=O)[C@H](C)NC(=O)CNC(=O)[C@H](CO)NC(=O)[C@H](CC(C)C)NC(=O)[C@@H](N)Cc1ccc(O)cc1)C(=O)O [Peptide 1350.01]
> 2000 µg/mL

====

- PROTOCOL DESCRIPTION: Solubility of individual peptides
- PROTOCOL CONDITIONS: pH 9.6
READOUT KIND: solubility

Give solubility for the following molecule: CC(C)C[C@H](NC(=O)[C@@H](NC(=O)[C@H](Cc1c[nH]c2ccccc12)NC(=O)[C@H](C)NC(=O)[C@H](C)NC(=O)[C@@H](NC(=O)[C@H](CC1CCCCC1)NC(=O)[C@H](CCCCN)NC(=O)[C@@H](C)N)C(C)C)[C@@H](C)O)C(=O)N[C@@H](CCCCN)C(=O)N[C@@H](C)C(=O)N[C@@H](C)C(=O)N[C@H](C)C(=O)O [Peptide 965.10, aKXVAAWTLKAAa]
< 5000 µg/mL

====

- PROTOCOL DESCRIPTION: Solubility of individual peptides
READOUT KIND: solubility

Provide one value: measured solubility of CC(C)C[C@H](NC(=O)[C@@H](NC(=O)[C@H](Cc1c[nH]c2ccccc12)NC(=O)[C@H](C)NC(=O)[C@H](C)NC(=O)[C@@H](NC(=O)[C@H](CC1CCCCC1)NC(=O)[C@H](CCCCN)NC(=O)[C@@H](C)N)C(C)C)[C@@H](C)O)C(=O)N[C@@H](CCCCN)C(=O)N[C@@H](C)C(=O)N[C@@H](C)C(=O)N[C@H](C)C(=O)O [Peptide 965.10, aKXVAAWTLKAAa]
> 2000 µg/mL

====

- PROTOCOL CONDITIONS: Solubility, DMSO
READOUT KIND: solubility

Determine its reported solubility: CC(C)C[C@H](NC(=O)[C@H](CC(C)C)NC(=O)[C@@H](N)CCCNC(=N)N)C(=O)N[C@@H](CCC(N)=O)C(=O)N[C@@H](CCC(=O)O)C(=O)N[C@H](C(=O)N[C@@H](CCC(=O)O)C(=O)N[C@@H](CC(C)C)C(=O)N[C@H](C(=O)O)C(C)C)[C@@H](C)O [Peptide 1013.08]
> 2000 µg/mL

Consider the molecule CC(C)C[C@H](NC(=O)[C@@H](N)CC(C)C)C(=O)N[C@H](C(=O)N[C@@H](Cc1ccccc1)C(=O)N[C@@H](Cc1c[nH]c2ccccc12)C(=O)N[C@@H](CC(N)=O)C(=O)N1CCC[C@H]1C(=O)N1CCC[C@H]1C(=O)N[C@H](C(=O)O)C(C)C)[C@@H](C)O [Peptide 1243.08] . State its measured solubility.
> 2000 µg/mL

Provide measured solubility value, entry: CC(C)C[C@H](NC(=O)[C@H](CO)NC(=O)CNC(=O)[C@H](Cc1ccccc1)NC(=O)[C@@H](NC(=O)[C@@H](N)CCCCN)C(C)C)C(=O)N[C@@H](C)C(=O)N[C@@H](Cc1ccccc1)C(=O)N[C@H](C(=O)O)C(C)C [Peptide 1334.10]
> 2000 µg/mL

For the molecule CC[C@H](C)[C@H](NC(=O)CNC(=O)[C@H](Cc1ccccc1)NC(=O)[C@@H](NC(=O)[C@H](CC(C)C)NC(=O)[C@H](CCC(N)=O)NC(=O)[C@H](CC(C)C)NC(=O)[C@@H](N)Cc1ccc(O)cc1)C(C)C)C(=O)N[C@@H](CCC(=O)O)C(=O)N[C@H](C(=O)O)C(C)C [Peptide 1090.01] , report solubility.
> 2000 µg/mL

====

- PROTOCOL CONDITIONS: Solubility, Acidic conditions (pH 2-4)
READOUT KIND: solubility

Supply solubility value. Item: CC(C)C[C@H](NC(=O)[C@H](CO)NC(=O)CNC(=O)[C@H](Cc1ccccc1)NC(=O)[C@@H](NC(=O)[C@@H](N)CCCCN)C(C)C)C(=O)N[C@@H](C)C(=O)N[C@@H](Cc1ccccc1)C(=O)N[C@H](C(=O)O)C(C)C [Peptide 1334.10]
> 2000 µg/mL

Return solubility for the following molecule: CC(C)C[C@H](NC(=O)[C@@H](N)CC(C)C)C(=O)N[C@H](C(=O)N[C@@H](Cc1ccccc1)C(=O)N[C@@H](Cc1c[nH]c2ccccc12)C(=O)N[C@@H](CC(N)=O)C(=O)N1CCC[C@H]1C(=O)N1CCC[C@H]1C(=O)N[C@H](C(=O)O)C(C)C)[C@@H](C)O [Peptide 1243.08]
> 2000 µg/mL

Give reported solubility value for CC[C@H](C)[C@H](NC(=O)CNC(=O)[C@H](Cc1ccccc1)NC(=O)[C@@H](NC(=O)[C@H](CC(C)C)NC(=O)[C@H](CCC(N)=O)NC(=O)[C@H](CC(C)C)NC(=O)[C@@H](N)Cc1ccc(O)cc1)C(C)C)C(=O)N[C@@H](CCC(=O)O)C(=O)N[C@H](C(=O)O)C(C)C [Peptide 1090.01]
< 5000 µg/mL
